experiment: Ultraviolet-visible and fluorescence spectroscopy of the probes; format: physicochemical; conditions: Table 2; same conditions as Example 2
quantity-kind: Absorption peak [nm] (nm)

- sample-smiles: "CN(C)c1ccc2c(c1)[Si](C)(C)C1=CC(=[N+](C)C)C=CC1=C2c1ccc(C(F)(F)F)cc1"
  quantity-kind: "Absorption peak [nm]"
  value-observed: 650
- sample-smiles: "Cc1ccccc1C1=C2C=CC(=[N+](C)C)C=C2[Si](C)(C)c2cc(N)ccc21"
  quantity-kind: "Absorption peak [nm]"
  value-observed: 620
- sample-smiles: "CN=C1C=CC2=C(c3ccccc3O)c3ccc(NC)cc3[Si](C)(C)C2=C1.O=C(O)C(F)(F)F"
  quantity-kind: "Absorption peak [nm]"
  value-observed: 620
- sample-smiles: "CCc1ccccc1C1=C2C=CC(=N)C=C2[Si](C)(C)c2cc(N)ccc21.O=C(O)C(F)(F)F"
  quantity-kind: "Absorption peak [nm]"
  value-observed: 592
- sample-smiles: "CN(C)c1ccc2c(c1)[Si](C)(C)C1=CC(=[N+](C)C)C=CC1=C2c1ccccc1Cl"
  quantity-kind: "Absorption peak [nm]"
  value-observed: 655
- sample-smiles: "Cc1ccccc1C1=c2cc3c(cc2[Si](C)(C)c2cc4c(cc21)OCCN4C)=[N+](C)CCO3"
  quantity-kind: "Absorption peak [nm]"
  value-observed: 695
- sample-smiles: "CN(C)c1ccc2c(c1)[Si](C)(C)C1=CC(=[N+](C)C)C=CC1=C2c1ccccc1F"
  quantity-kind: "Absorption peak [nm]"
  value-observed: 655
- sample-smiles: "CN=C1C=CC2=C(c3ccccc3OC)c3ccc(NC)cc3[Si](C)(C)C2=C1.O=C(O)C(F)(F)F"
  quantity-kind: "Absorption peak [nm]"
  value-observed: 620
- sample-smiles: "CN(C)c1ccc2c(c1)[Si](C)(C)C1=CC(=[N+](C)C)C=CC1=C2c1cccc(C(F)(F)F)c1"
  quantity-kind: "Absorption peak [nm]"
  value-observed: 650

====

assay: Fluorescence assay for glutathione: Kd from absorption/fluorescence change on glutathione addition; type: binding; details: Table 2; dissociation constant for glutathione; same conditions as Example 2; read-out: Kd
pKd: −log10 of the molar value.
Item-by-item account of pKd

- molecule: "CN(C)c1ccc2c(c1)[Si](C)(C)C1=CC(=[N+](C)C)C=CC1=C2c1ccccc1Cl [Compound 23]"
  pKd: 1.57
- molecule: "CN(C)c1ccc2c(c1)[Si](C)(C)C1=CC(=[N+](C)C)C=CC1=C2c1ccccc1F [Compound 18]"
  pKd: 2.89
- molecule: "Cc1ccccc1C1=c2cc3c(cc2[Si](C)(C)c2cc4c(cc21)OCCN4C)=[N+](C)CCO3 [Compound 27]"
  pKd: 2.68
- molecule: "CN(C)c1ccc2c(c1)[Si](C)(C)C1=CC(=[N+](C)C)C=CC1=C2c1cccc(C(F)(F)F)c1 [Compound 21]"
  pKd: 3.22
- molecule: "CCc1ccccc1C1=C2C=CC(=N)C=C2[Si](C)(C)c2cc(N)ccc21.O=C(O)C(F)(F)F [Compound 11]"
  pKd: 2.64
- molecule: "CN(C)c1ccc2c(c1)[Si](C)(C)C1=CC(=[N+](C)C)C=CC1=C2c1ccc(C(F)(F)F)cc1 [Compound 22]"
  pKd: 3.30
- molecule: "CN=C1C=CC2=C(c3ccccc3OC)c3ccc(NC)cc3[Si](C)(C)C2=C1.O=C(O)C(F)(F)F [Compound 16]"
  pKd: 1.80
- molecule: "Cc1ccccc1C1=C2C=CC(=[N+](C)C)C=C2[Si](C)(C)c2cc(N)ccc21 [Compound 26]"
  pKd: 1.82
- molecule: "CN=C1C=CC2=C(c3ccccc3O)c3ccc(NC)cc3[Si](C)(C)C2=C1.O=C(O)C(F)(F)F [Compound 17]"
  pKd: 1.68
